Hey, just so you know, these numbers are from patent US20220073643A1.

# System under test: T1, human Claudin18.2 (human)
# T1 construct: also called CLDN18.2
# Method: cell ELISA, Claudin18.2-expressing HEK293T cells
Endpoint name: pEC50
Scale for pEC50: -log10 of concentration given in mol/L; no unit attached.

State the recorded pEC50 for this entry: 234B9D4 (antibody, V domains shown, mouse hybridoma mAb) VH: EIQLQQSGPDLMKPGSSVKISCTASGYSFTSYYIHWVKQSHGKTLEWIGYIDPFNGGTRYNQKFEGKAALTVDKSSTTAYMHLTSLTSDDSAVYYCASLRFFTYWGQGTLVTVSA VL: DIVMTQSPSSLTVTAGEKVTMTCKSSQSLLNSGNQENYLTWYQQKPGQPPKLLISRASTRQSGVPDRFTGSGSGTDFTLTISSVQAEDLAVYYCQNDYSYPLTFGAGTKLELK 8.32
